# Top MFI values compiled below
system.tested: T1, human DLL3 on SHP-77 cells (human, UniProt Q9NYJ7 27-618)
T1 construct: also called DLL3-expressing cells (SHP-77)
T1 sequence: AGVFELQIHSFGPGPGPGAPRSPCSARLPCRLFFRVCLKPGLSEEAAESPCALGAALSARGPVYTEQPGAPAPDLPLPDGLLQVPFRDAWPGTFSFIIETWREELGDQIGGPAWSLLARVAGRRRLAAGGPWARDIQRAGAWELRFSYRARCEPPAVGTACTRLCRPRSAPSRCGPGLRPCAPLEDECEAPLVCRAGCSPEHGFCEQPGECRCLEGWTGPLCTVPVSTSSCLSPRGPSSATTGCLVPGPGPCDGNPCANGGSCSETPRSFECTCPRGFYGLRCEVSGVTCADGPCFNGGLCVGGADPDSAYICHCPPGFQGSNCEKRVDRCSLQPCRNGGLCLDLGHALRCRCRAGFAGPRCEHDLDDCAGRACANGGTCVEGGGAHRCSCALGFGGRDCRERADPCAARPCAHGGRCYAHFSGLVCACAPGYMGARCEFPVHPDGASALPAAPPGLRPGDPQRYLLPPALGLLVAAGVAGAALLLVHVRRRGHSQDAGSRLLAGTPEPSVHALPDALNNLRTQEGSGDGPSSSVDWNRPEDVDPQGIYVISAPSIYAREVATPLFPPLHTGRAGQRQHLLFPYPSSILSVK
assay.procedure: flow cytometry, SHP-77 cells
Protocol: SHP-77 and HEK293-cyno DLL3 cells were cultured. The culture medium for SHP-77 cells were RPMI1640+10% FBS, and the culture medium for HEK293 cyno DLL3 cells were DMEM+10% FBS+200 μg/ml Hygromycin. The cells were cultured in a T75 cell culture flask at a 37° C. 5% CO₂ incubator. […] The digested cells were centrifuged at 1000 rpm for 5 min at room temperature. […] The cells were counted and adjusted to a cell density of 1E6/m. […] The mean fluorescence intensity of the PE channels was measured by flow cytometry. […]
// return numeric value only (unit: MFI, not printed)

Solved entries (count: 3):
binder	Top MFI [MFI]
hDLL3-3-1 camelid-derived humanized anti-DLL3 antibody (antibody, human IgG1, V domains shown) VH: EVQLVESGGGLVQPGGSLRLSCAASTYTISSGYMGWFRQAPGKEREGVAAIYIGGSTTLYADSVKGRFTISRDNSKNTLYLQMNSLRAEDTAVYYCAAQLRPNSAYHPLDGRKYNYWGQGTLVTVSS	702
DLL3-12 camelid-derived anti-DLL3 chimeric antibody (antibody, human IgG1, V domains shown) VH: QVQLVESGGGLVQPGESLRLSCAGSGFAFSSYDMHWVRQAPGKDFEWVSSISRDGRGPRYADFVKGRFTISKDNGRNMLYLQLNSLEIEDTAMYYCSKGYPIMGGTTQGTQVTVSS	935
hDLL3-276 camelid-derived humanized anti-DLL3 antibody (antibody, V domains shown) VH: QVQLVESGGGVVQPGGSLRLSCAASGSTASTTYMGWFRQAPGKGREGVAIIYTARDNPWYADSVKGRFTISRDNSKNTLYLQMNSLRAEDTAVYYCAATLANPTRTAWGQGTLVTVSS	622

Task item: Entry hDLL3-122 camelid-derived humanized anti-DLL3 antibody (antibody, V domains shown) VH: EVQLVESGGGLVQPGGSLRLSCAASGDTYRSYCMGWFRQAPGKEREGVADIVSDGSTSYADSVKGRFTISRDNSKNTLYLQMNSLRAEDTAVYYCAVDRGGSGGYCYTGRYDYWGQGTLVTVSS needs its Top MFI filled in; supply it.
Reply: 778

Task item: Entry DLL3-122 camelid-derived anti-DLL3 chimeric antibody (antibody, human IgG1, V domains shown) VH: QVQLVESGGGSVQAGGSLRLSCTASGDTYRSYCMGWFRKAPGKEREGVADIVSDGSTSYADSVKGRFTISKDNAKNTLYLQMNSLKPEDTAMYYCAVDRGGSGGYCYTGRYDYWGQGTQVTVSS needs its Top MFI filled in; supply it.
Reply: 877

Task item: Entry DLL3-276 camelid-derived anti-DLL3 chimeric antibody (antibody, human IgG1, V domains shown) VH: QVQLVESGGGSVQAGGSLNLSCATSGSTASTTYMGWFRQAPGKGREGVAIIYTARDNPWYANSVKGRFIISQDNAKKTLYLQMNTLKPEDTATYYCAATLANPTRTAWGQGTLVTVSS needs its Top MFI filled in; supply it.
Reply: 782

Task item: Entry hDLL3-26 camelid-derived humanized anti-DLL3 antibody (antibody, V domains shown) VH: EVQLVESGGGLVQPGGSLRLSCAASGDIYSSSYVGWFRQAPGKEREGVAIIYTSGDSTYYADSVKGRFTISRDNSKNTLYLQMNSLRAEDTAVYYCAARFAIDNSNYWGQGTLVTVSS needs its Top MFI filled in; supply it.
Reply: 696

Task item: Entry hDLL3-12-1 camelid-derived humanized anti-DLL3 antibody (antibody, V domains shown) VH: QVQLVESGGGVVQPGRSLRLSCAASGFAFSSYDMHWVRQAPGKGLEWVSSISRDGRGPRYADSVKGRFTISRDNSKNTLYLQMNSLRAEDTAVYYCSKGYPIMGGTTQGTLVTVSS needs its Top MFI filled in; supply it.
Reply: 690

Task item: Entry DLL3-26 camelid-derived anti-DLL3 chimeric antibody (antibody, human IgG1, V domains shown) VH: QVQLVESGGGSVQAGGSLRLSCAASGDIYSSSYVGWFRQAPGKEREGVAIIYTSGDSTYYANSVKGRFTISQDKAKKTLYLQMNSLKPEDTAMYYCAARFAIDNSNYWGQGTQVTVSS needs its Top MFI filled in; supply it.
Reply: 841

Task item: Entry hDLL3-12-2 camelid-derived humanized anti-DLL3 antibody (antibody, V domains shown) VH: QVQLVESGGGVVQPGRSLRLSCAASGFAFSSYDMHWVRQAPGKDFEWVSSISRDGRGPRYADSVKGRFTISRDNSKNTLYLQMNSLRAEDTAVYYCSKGYPIMGGTTQGTLVTVSS needs its Top MFI filled in; supply it.
Reply: 804
